Source of measurements: the METLIN SMRT retention time set (Domingo-Almenara et al. 2019)

experimental protocol: gradient 5% acetonitrile 3 min, to 50% in 2 min, to 85% in 15 min, held 3 min, 100 µL/min
assay setup: column: Zorbax Extend-C18 2.1 x 50 mm; eluents: water / acetonitrile, 0.1% formic acid
endpoint name: RP-LC retention time (s)

>  <compound>
CC(=O)N1CCC2(CC1)CC(CCO)CCO2 (stereo not given)

>  <endpoint name>
RP-LC retention time

>  <unit string>
s

>  <reported>
575

$$$$
>  <compound>
Cn1cc(S(=O)(=O)N2CCCCC2)cc1C(=O)Nc1ccccc1

>  <endpoint name>
RP-LC retention time

>  <unit string>
s

>  <reported>
960

$$$$
>  <compound>
CCS(=O)(=O)N1CCCN(C(=O)NC(C)(C)C)CC1

>  <endpoint name>
RP-LC retention time

>  <unit string>
s

>  <reported>
663

$$$$
>  <compound>
CCCNC(=O)C1CCCN(c2ccc(SCC(=O)Nc3cccc(C(F)(F)F)c3)nn2)C1 (stereo not given)

>  <endpoint name>
RP-LC retention time

>  <unit string>
s

>  <reported>
744

$$$$
>  <compound>
COc1cccc(Nc2c(-c3ccc(OC)c(OC)c3)nc3cnccn23)c1

>  <endpoint name>
RP-LC retention time

>  <unit string>
s

>  <reported>
794

$$$$
>  <compound>
Cc1nc(C)c(C(=O)N2CCC(N3C[C@H](O)C[C@H]3C(=O)NC3CCCCC3)CC2)s1

>  <endpoint name>
RP-LC retention time

>  <unit string>
s

>  <reported>
574

$$$$
>  <compound>
Cc1c(S(=O)(=O)NC2CC2)c(C)n(C)c1-c1nnc(C2CCC2)o1

>  <endpoint name>
RP-LC retention time

>  <unit string>
s

>  <reported>
787

$$$$
>  <compound>
CN1CCC(NC(=O)c2n[nH]c3c2CN(C(=O)c2ccccc2Br)CC3)CC1

>  <endpoint name>
RP-LC retention time

>  <unit string>
s

>  <reported>
595

$$$$
>  <compound>
Cc1ccc(CN2C(=O)CN(S(=O)(=O)c3ccccc3)CC2(C)C(=O)NCCC(C)C)cc1 (stereo not given)

>  <endpoint name>
RP-LC retention time

>  <unit string>
s

>  <reported>
1040

$$$$
>  <compound>
O=C(c1cccs1)N1CCN(c2[nH]ncc2-c2ccccc2)CC1

>  <endpoint name>
RP-LC retention time

>  <unit string>
s

>  <reported>
808

$$$$
